# Target system: T1, human MAdCAM expressed on cells (human, UniProt Q13477 19-382)
# T1 construct: whole, on cells; also called MADCAM1
# T1 sequence (looked up): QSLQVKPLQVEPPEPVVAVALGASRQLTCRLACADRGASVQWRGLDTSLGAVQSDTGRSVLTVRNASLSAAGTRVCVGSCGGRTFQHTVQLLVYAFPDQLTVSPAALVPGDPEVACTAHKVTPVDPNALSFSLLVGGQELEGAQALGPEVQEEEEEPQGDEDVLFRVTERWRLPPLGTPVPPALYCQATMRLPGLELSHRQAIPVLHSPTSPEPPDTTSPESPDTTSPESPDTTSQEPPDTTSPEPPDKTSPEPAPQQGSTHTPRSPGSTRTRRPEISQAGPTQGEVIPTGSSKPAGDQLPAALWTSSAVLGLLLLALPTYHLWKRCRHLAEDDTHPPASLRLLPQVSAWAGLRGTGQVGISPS
# Assay protocol: cell binding
Measured property: binding result

MAdCAM Antibody Table 1 Clone 50 (scFv) scFv: QVQLVQSGAEVKKPGASVKVSCKASGYTFTSYDINWVRQAPGQGLEWMGWINPNSGTTGYAQKFQGRVTMTRDTSTSTVYMELSSLRSEDTAVYYCARSPYYYYGMDVWGQGTTVTVSSGGGGSGGGGSGGGGSGGGGSDIQMTQSPSSLSASVGDRVTITCRASHFISRWVAWYQQKPGKAPKLLIYAASTLQSGVPSRFSGSGSGTDFTLTISSLQPEDFATYYCQQSYSGISFGPGTKVDIK | binds
MAdCAM Antibody Table 1 Clone 63 (scFv) scFv: EVQLLESGGGLVKPGGSLRLSCAASGFTFDDYAMHWVRQAPGKGLEWVASITSSSAFIDYAASVKGRFTISRDDSKNTLYLQMNSLKTEDTAVYYCARERVDWNSYFDLWGRGTLVTVSSGGGGSGGGGSGGGGSGGGGSEIVMTQSPATLSVSPGERATLSCRASQGISNSYLAWYQQKPGQAPRLLIYGASTRATGIPARFSGSGSGTEFTLTISSLQSEDFAVYYCQQYYTYPPTFGPGTKVDIK | binds
MAdCAM Antibody Table 1 Clone 55 (scFv) scFv: QVQLVQSGAEVKKPGASVKVSCKASGYTFTSYYMHWVRQAPGQGLEWMGIIDPSGGSTSYAQKFQGRVTMTRDTSTSTVYMELSSLRSEDTAVYYCAREEWSSGGVGYFDYWGQGTLVTVSSGGGGSGGGGSGGGGSGGGGSDIQMTQSPSSLSASVGDRVTITCRASQGISSYLAWYQQKPGKAPKLLIYATSSLQTGVPSRFSGSGSGTDFTLTISSLQPEDFATYYCQQTYSIPITFGQGTRLEIK | binds
